These entries and their values trace back to patent US6835382B2.

Target: murine E^d MHC class II allele (Mus musculus, UniProt P01904+P01915)
Sequence (P01904 26-255): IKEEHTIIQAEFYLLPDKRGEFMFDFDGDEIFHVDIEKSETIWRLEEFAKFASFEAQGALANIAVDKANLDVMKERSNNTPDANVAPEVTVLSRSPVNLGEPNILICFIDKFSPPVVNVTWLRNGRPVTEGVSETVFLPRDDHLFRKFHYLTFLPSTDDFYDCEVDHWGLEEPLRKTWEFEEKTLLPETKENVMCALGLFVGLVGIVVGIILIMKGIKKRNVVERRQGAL
Sequence (P01915 27-264 limits assumed): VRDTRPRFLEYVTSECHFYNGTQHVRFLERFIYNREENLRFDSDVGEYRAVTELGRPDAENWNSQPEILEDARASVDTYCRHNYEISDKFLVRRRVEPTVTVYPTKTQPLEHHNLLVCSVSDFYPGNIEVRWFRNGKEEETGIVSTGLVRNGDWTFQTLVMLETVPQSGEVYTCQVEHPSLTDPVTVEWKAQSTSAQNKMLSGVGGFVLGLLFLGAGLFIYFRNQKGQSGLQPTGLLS
Assay: processed antigen assay, E^d allele (APC pulsed with native HEL)
Format: cell-based
Parameters: The A20 and CH27 B cell lymphoma lines express H-2^d and H-2^k alleles, respectively; endogenous in cells; host or cells: A20 B cell lymphoma (mitomycin C-treated or paraformaldehyde-fixed)
Details: Table 29; native HEL prepulse 20 μM; AE peptide 64 μM; supernatant dilution 1:4 (first value)
measurement.name: T cell response relative to baseline (None = 1.0), 20 μM HEL E^d, first value

Example entries and their recorded answers appear below.
State the recorded T cell response relative to baseline (None = 1.0), 20 μM HEL E^d, first value for this entry: Ac-LRMK E PK-NH2 (Ac-LRMKEPK-NH2) [AE231]
1.0

State the recorded T cell response relative to baseline (None = 1.0), 20 μM HEL E^d, first value for this entry: Ac-LRMK Y PK-NH2 (Ac-LRMKYPK-NH2; not fully specified; printed as Ac-LRMK Y PK-NH2) [AE235]
0.71,

State the recorded T cell response relative to baseline (None = 1.0), 20 μM HEL E^d, first value for this entry: Ac-LRMK N PK-NH2 (Ac-LRMKNPK-NH2) [AE232]
0.97,

State the recorded T cell response relative to baseline (None = 1.0), 20 μM HEL E^d, first value for this entry: Ac-LRMK K PK-NH2 (Ac-LRMKKPK-NH2) [AE229]
0.71,

State the recorded T cell response relative to baseline (None = 1.0), 20 μM HEL E^d, first value for this entry: Ac-LRMK M PK-NH2 (Ac-LRMKMPK-NH2) [AE236]
0.76,

***
State the recorded T cell response relative to baseline (None = 1.0), 20 μM HEL E^d, first value for this entry: Ac-LRMK H PK-NH2 (Ac-LRMKHPK-NH2) [AE228]
0.71,

* * *

Target: murine E^d MHC class II allele (Mus musculus, UniProt P01904+P01915)
Sequence (P01904 26-255): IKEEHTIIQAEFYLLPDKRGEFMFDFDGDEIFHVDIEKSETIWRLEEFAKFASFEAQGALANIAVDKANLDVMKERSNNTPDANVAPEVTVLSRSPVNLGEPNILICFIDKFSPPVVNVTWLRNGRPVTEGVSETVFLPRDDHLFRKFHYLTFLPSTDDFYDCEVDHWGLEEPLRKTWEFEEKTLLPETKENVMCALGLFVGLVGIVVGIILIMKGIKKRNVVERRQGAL
Sequence (P01915 27-264 limits assumed): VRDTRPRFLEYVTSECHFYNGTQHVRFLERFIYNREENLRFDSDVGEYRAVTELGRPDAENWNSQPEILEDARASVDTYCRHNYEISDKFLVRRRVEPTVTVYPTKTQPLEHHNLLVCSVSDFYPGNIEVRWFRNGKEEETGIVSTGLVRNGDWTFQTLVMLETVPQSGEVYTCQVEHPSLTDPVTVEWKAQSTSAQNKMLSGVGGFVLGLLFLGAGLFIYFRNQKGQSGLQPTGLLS
Assay: simultaneous assay, E^d allele (A20 APC, G28.C9 T hybridoma, HEL106-116; HT-2 [3H]TdR readout)
Assay type: cell-based
Design: The A20 and CH27 B cell lymphoma lines express H-2^d and H-2^k alleles, respectively; endogenous in cells; host or cells: A20 B cell lymphoma (mitomycin C-treated or paraformaldehyde-fixed)
Settings: Table 16; AE peptide 4 μM; supernatant 1:8
Non-standard residues stand in square brackets, D forms with d. hArg = N=C(N)NCCCC[C@H](N)C(=O)O; Cit = NC(=O)NCCC[C@H](N)C(=O)O
measurement.name: Times Baseline Response, E^d

State the recorded Times Baseline Response, E^d for this entry: Ac-LRMKLP[Cit]-NH2 [AE241]
7.1

State the recorded Times Baseline Response, E^d for this entry: Ac-Y[hArg]MKLPKSAK-NH2 [AE132]
3.9

State the recorded Times Baseline Response, E^d for this entry: Ac-LRMKYP[Cit]-NH2 [AE364]
14.0
